Target Or Test System: BmTrxR (Brugia malayi, UniProt A0A1I9G0T9)
Sequence (A0A1I9G0T9 entry or part of it, added parts left off): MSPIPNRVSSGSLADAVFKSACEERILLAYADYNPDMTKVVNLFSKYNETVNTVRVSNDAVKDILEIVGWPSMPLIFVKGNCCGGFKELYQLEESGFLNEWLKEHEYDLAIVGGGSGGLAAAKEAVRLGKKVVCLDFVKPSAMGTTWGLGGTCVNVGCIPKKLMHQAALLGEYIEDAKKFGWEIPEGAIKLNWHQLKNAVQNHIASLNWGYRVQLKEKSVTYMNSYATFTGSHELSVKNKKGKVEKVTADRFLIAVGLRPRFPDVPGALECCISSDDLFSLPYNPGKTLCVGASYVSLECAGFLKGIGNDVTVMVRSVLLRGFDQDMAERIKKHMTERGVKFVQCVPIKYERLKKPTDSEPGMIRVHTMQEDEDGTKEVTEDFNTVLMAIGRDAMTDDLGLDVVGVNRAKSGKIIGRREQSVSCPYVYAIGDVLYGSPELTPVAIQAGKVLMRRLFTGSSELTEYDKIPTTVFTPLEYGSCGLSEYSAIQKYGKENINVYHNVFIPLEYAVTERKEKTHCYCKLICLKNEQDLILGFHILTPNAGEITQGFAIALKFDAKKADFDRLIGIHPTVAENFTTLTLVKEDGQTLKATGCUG
Procedure Text: B. malayi TrxR enzyme inhibition
Format: biochemical
Run Parameters: BmTrxR, 50 µM compound, mean of 3 replicates; read-out: % inhibition
Measurement Kind: inhibition at 50 µM (%)
Kindly provide the numeric value in % only, without the unit symbol.

Example entries begin here.
# Molecule, inhibition at 50 µM (%)
rows = [
    ("Cc1oc(C2CCCCC2)nc1C(=O)N[C@@H]1C[C@@H]2C[C@H]([C@H]1C)C2(C)C", -0.00455),
    ("CCc1ccccc1-c1nc(CN[C@@H]2C[C@@H]3C[C@H]([C@H]2C)C3(C)C)c(C)o1", 12.9),
    ("CC1C(NCc2cn(C3OCC(O)C(O)C3O)c3ccccc23)CC2CC1C2(C)C (stereo not shown)", 83.3),
    ("Cc1oc(C2CCCCC2)nc1CN[C@@H]1C[C@@H]2C[C@H]([C@H]1C)C2(C)C", 0.575),
    ("C[C@@H]1[C@H]2C[C@@H](C[C@H]1NCc1nc3ccccc3n1C1CCCCCC1)C2(C)C", 68.2),
]

Req: Which inhibition at 50 µM is reported for this molecule? `Cc1oc(-c2ccc3c(c2)OCO3)nc1CN[C@@H]1C[C@@H]2C[C@H]([C@H]1C)C2(C)C`
Resp: 77.5

Req: Try the molecule `Cc1oc(-c2ccc3ccccc3c2)nc1CNC1CCCCCC1`
Resp: 9.07

====

System: S. mansoni juvenile worms (21 days)
Procedure Text: Schistosomicidal activity ex vivo, juvenile worms (21 days)
Type: cell-based
Run Parameters: Schistosoma mansoni; 23 day S. mansoni worms, 48 HR, Conc. 15 µM
Response field label: string, one of yes (viability at 15 µM strictly below 50%) or no.

Solved cases below.
# Item Smiles, Classification
rows = [
    ("Cc1oc(-c2ccccc2)nc1CN[C@@H]1C[C@@H]2C[C@H]([C@H]1C)C2(C)C", "yes"),
    ("C[C@@H]1[C@H]2C[C@@H](C[C@H]1NCc1nc3ccccc3n1C1CCCCCC1)C2(C)C", "no"),
    ("Cc1oc(-c2ccc3ccccc3c2)nc1CNC1CCCCCC1", "no"),
    ("Cc1oc(-c2ccc3c(c2)OCO3)nc1CN[C@@H]1C[C@@H]2C[C@H]([C@H]1C)C2(C)C", "no"),
    ("CCc1ccccc1-c1nc(CN[C@@H]2C[C@@H]3C[C@H]([C@H]2C)C3(C)C)c(C)o1", "yes"),
]

Req: In the record for `C#CCN(Cc1nc(-c2ccccc2)oc1C)[C@@H]1C[C@@H]2C[C@H]([C@H]1C)C2(C)C` , is viability at 15 µM less than 50%?
Resp: no

Req: Do the same for `Cc1oc(C2CCCCC2)nc1CN[C@@H]1C[C@@H]2C[C@H]([C@H]1C)C2(C)C` please
Resp: yes

Req: And what about the compound `Cc1oc(C2CCCCC2)nc1C(=O)N[C@@H]1C[C@@H]2C[C@H]([C@H]1C)C2(C)C` ?
Resp: no

====

System: S. mansoni adult worms
Procedure Text: GSH/GSSG ratio in ex vivo adult worms
Assay type: cell-based
Run Parameters: 3 hr; first data set (r117-133), baseline = 100
Measurement Kind: % Ratio GSH/GSSG (%)
Use % as the unit, but write only the number.

These recorded examples may help you get a feel for the data.
# Molecule, Target Or Test System, % Ratio GSH/GSSG / %
data = [
    ("Cc1oc(C2CCCCC2)nc1CN[C@@H]1C[C@@H]2C[C@H]([C@H]1C)C2(C)C [Compound 4]", "S. mansoni adult worms", 33.9548),
    ("O=C(C1CCCCC1)N1CC(=O)N2CCc3ccccc3C2C1 (stereo not drawn) [PZQ, praziquantel]", "S. mansoni adult worms", 98.6979),
]

Req: // returns reported % Ratio GSH/GSSG for input CC(=O)OC[C@H]1O[C@@H]([S-])[C@H](OC(C)=O)[C@@H](OC(C)=O)[C@@H]1OC(C)=O.CCP(CC)CC.[Au+] [AF, auranofin, reference compound]
Resp: 8.693

Req: Now this one: CCc1ccccc1-c1nc(CN[C@@H]2C[C@@H]3C[C@H]([C@H]2C)C3(C)C)c(C)o1 [Compound 2]
Resp: 51.9337

Req: Quick one: C[C@@H]1N=C(c2ccccc2Cl)c2cc([N+](=O)[O-])ccc2NC1=O [MZM, meclonazepam, reference compound]
Resp: 98.7201

Req: Now the same for Cc1oc(-c2ccccc2)nc1CN[C@@H]1C[C@@H]2C[C@H]([C@H]1C)C2(C)C [Compound 3]
Resp: 45.9343
